// provenance: PubChem BioAssay (NCI)

- System: CCRF-CEM leukemia
- method.description: NCI tumour cell line growth inhibition, 48 h
Provide the recorded GI50 for the entries that follow.

Prompt: Look at this molecule and give its reported GI50. C[N+]1=C(/C=C/c2ccc(O)c3ncccc23)C(C)(C)c2ccccc21
Response: 3.1 µM

Prompt: Try this molecule next: N#CC(C#N)=C1Nc2ccccc2S1
Response: 45.5 µM

Prompt: Try this molecule next: CCCn1c(=S)sc2c1nc(C)n1c(Nc3ccccc3)nnc21
Response: 4.32 µM

Prompt: Try this molecule next: COC(=O)Nc1nc2ccc(Oc3ccc(NC(=O)Nc4cc(C(F)(F)F)ccc4F)cc3)cc2s1
Response: > 23.7 µM

Prompt: Try this molecule next: CC/C=C\C[C@@H](O)C/C=C1/C(=O)C=C[C@H]1C/C=C\CCCC(=O)OC
Response: 0.461 µM

* * *

- System: TK-10 renal
- method.description: NCI tumour cell line growth inhibition, 48 h
property: GI50

Prompt: Look at this compound and give its reported GI50. CCCn1c(=S)sc2c1nc(C)n1c(Nc3ccccc3)nnc21
Response: 3.2 µM

Prompt: Try this compound next: COc1ccc(-c2onc(N)c2-c2cc(OC)c3c(c2)OCO3)cc1
Response: 8.49 µM

Prompt: Try this compound next: COc1ccc(C(=O)C#Cc2cnc(OC)nc2OC)cc1
Response: 17700 µM

* * *

- Test system: OVCAR-3 ovarian
- method.description: NCI tumour cell line growth inhibition, 48 h
property: TGI

Prompt: Look at this compound and give its reported TGI. COC(=O)c1cc2c(cc1CC1Cc3cc4c(cc3C1=O)CCC4)CCC2 (stereo not given)
Response: > 100 µM

Prompt: Try this compound next: Cc1c(C(=O)C/C(=N/NC(=O)C[N+](C)(C)C)C(=O)Nc2ccc(Cl)cc2)[n+](=O)c2ccccc2n1O
Response: > 100 µM

Prompt: Try this compound next: CCOC(=O)/C(C#N)=C/c1[nH]c(C(=O)OCc2ccccc2)c(C)c1C
Response: > 100 µM

Prompt: Try this compound next: Cc1ccc(-c2nc3nc(-c4ccccc4)nc(N4CCCNCC4)c3o2)cc1
Response: 3.32 µM

Prompt: Try this compound next: Nc1nc(I)nc2c1ncn2C1OC(COS(N)(=O)=O)C(O)C1O (stereo not given)
Response: 0.012 µM

Prompt: Try this compound next: N#CC1C(=O)N(c2ccccc2)NC12OC(=O)c1ccncc12 (stereo not given)
Response: > 20 µM

Prompt: Try this compound next: COc1ccc(N2C(=O)/C(=C/c3ccc(N(CCC#N)CCC#N)cc3C)N=C2c2cc([N+](=O)[O-])ccc2Cl)cc1
Response: 11.3 µM

Prompt: Try this compound next: CCN(CC)CCn1nc(N)c2nc3ccccc3nc21
Response: > 100 µM

Prompt: Try this compound next: CCOC(=O)NC(=O)c1cn(CCNCCO)c(=O)[nH]c1=O
Response: > 100 µM

Prompt: Try this compound next: CN1CCN(c2ccc3[nH]c(-c4cc(O)c5c(nc(CO)n5C)c4O)nc3n2)CC1
Response: > 100 µM

* * *

- Test system: EKVX NSCLC
- method.description: NCI tumour cell line growth inhibition, 48 h
Provide the recorded TGI for the entries that follow.

Prompt: Can you look up TGI on EKVX NSCLC for CCC(C)(C)C1CCC2c3c([nH]c4ccccc34)C3C(=O)N(c4ccc(OC)cc4)C(=O)C3C2C1 (stereo not drawn) ?
Response: > 100 µM

Prompt: Try this compound next: CC(SC(=S)N1CCOCC1)c1cc2oc(=O)n(C)c2cc1Cl (stereo not drawn)
Response: > 100 µM

Prompt: Try this compound next: O=C(CCN(C(=O)O)S(=O)(=O)c1ccc(NC(=O)c2ccccc2)cc1)NC1CCCCC1
Response: > 100 µM

Prompt: Try this compound next: O=C(O)c1ccccc1/C=N/NC1=NCCN1
Response: > 100 µM

Prompt: Try this compound next: CC(=O)O[C@H]1C(=O)[C@@]2(C)C(C(OC(=O)c3ccccc3)[C@]3(O)CC(OC(=O)[C@H](OC(=O)CCC(=O)O)C(NC(=O)c4ccccc4)c4ccccc4)C(C)=C1C3(C)C)C1(OC(C)=O)COC1C[C@@H]2O (stereo partly drawn)
Response: > 100 µM

Prompt: Try this compound next: Cc1ccc(-c2nc3nc(-c4ccccc4)nc(N4CCCNCC4)c3o2)cc1
Response: 3.29 µM

Prompt: Try this compound next: Oc1c2cc(Cl)cc1COCc1cc(Cl)cc(c1O)COCc1cc(Cl)cc(c1O)COC2
Response: > 100 µM

Prompt: Try this compound next: CCN(CC)C(c1ccc(N(C)C)cc1)C(c1ccc(N(C)C)cc1)N(CC)CC (stereo not drawn)
Response: > 73 µM

Prompt: Try this compound next: Cn1c2ccccc2c2ccc3c(c21)C(=O)c1ccccc1C3=O
Response: > 100 µM

Prompt: Try this compound next: Cc1c(C(=O)C/C(=N/NC(=O)C[N+](C)(C)C)C(=O)Nc2ccc(Cl)cc2)[n+](=O)c2ccccc2n1O
Response: > 100 µM

Prompt: Try this compound next: COc1nc(N=P(c2ccccc2)(c2ccccc2)c2ccccc2)cc(=O)[nH]1
Response: > 100 µM

Prompt: Try this compound next: CCN(CC)CCCC(C)Nc1c2ccc(Cl)cc2nc2ccc(O)cc12 (stereo not drawn)
Response: 11.6 µM

Prompt: Try this compound next: C=C1[C@H](OC(C)=O)[C@H]2[C@@H](OC(C)=O)[C@@H](C)C[C@]2(C)C(=O)[C@H](C)/C=C/C(C)(C)C(=O)[C@H](OCC(C)C)[C@H]1OC(C)=O
Response: > 25 µM

Prompt: Try this compound next: Cc1cc(N(CCC#N)CCC#N)ccc1/C=C1\N=C(c2cc([N+](=O)[O-])ccc2Cl)N(c2cccc(Cl)c2)C1=O
Response: > 100 µM

Prompt: Try this compound next: COCCCNC(=O)C1C(=O)C(=O)N(CCCOC)C1=O (stereo not drawn)
Response: > 100 µM

Prompt: Try this compound next: CN1CCN(c2ccc3[nH]c(-c4cc(O)c5c(nc(CO)n5C)c4O)nc3n2)CC1
Response: 85.8 µM

Prompt: Try this compound next: CCOCc1c(C)cc(C)c(C2C(C(=O)c3ccccc3)N3c4ccccc4C=CC3C2(C#N)C(=O)OCC)c1C (stereo not drawn)
Response: 67.3 µM

Prompt: Try this compound next: Cc1nc(-c2cc3c(ccc4ccccc43)oc2=O)cs1
Response: > 100 µM

* * *

- System: CAKI-1 renal
- method.description: NCI tumour cell line growth inhibition, 48 h
Provide the recorded TGI for the entries that follow.

Prompt: Look at this compound and give its reported TGI. NC12CC3CC(C1)CC(C(=O)O)(C3)C2
Response: > 100 µM

Prompt: Try this compound next: O=c1cc(-c2ccccc2)oc2cc(OC/C(=N/O)c3ccccc3)ccc12
Response: > 50 µM

Prompt: Try this compound next: O=c1[nH]nc(-c2ccccc2)n1-c1ccncc1
Response: > 100 µM

Prompt: Try this compound next: C/C(Cl)=N/OC(=O)Nc1ccc(S(N)(=O)=O)c(C)c1
Response: 3.23 µM

Prompt: Try this compound next: Nc1c(-c2ccc(Cl)cc2)[n+]([O-])c2ccccc2[n+]1[O-]
Response: > 100 µM

Prompt: Try this compound next: O=C(O)CCC(=O)Nc1ccc2ccccc2c1
Response: > 100 µM

Prompt: Try this compound next: COc1cc[nH]c1/C=C1\C(=O)Nc2ccc(F)c(C#CC3(O)CCNCC3)c21
Response: 0.472 µM

Prompt: Try this compound next: N#CC1C(=O)N(c2ccccc2)NC12OC(=O)c1ccncc12 (stereo unspecified)
Response: > 20 µM

Prompt: Try this compound next: O=C1C(Cl)=C(NCCN2CCOCC2)C(=O)c2ncccc21
Response: 3.72 µM

Prompt: Try this compound next: CCCC1N2CCCCC2[C@@H]2c3[nH]c4ccccc4c3CCN12 (stereo partly specified)
Response: > 100 µM

Prompt: Try this compound next: O=C1CN(C(=O)C2CCCN2C(=O)C2CCCN2)C(=O)CN1 (stereo unspecified)
Response: > 100 µM

* * *

- Tested on: MALME-3M melanoma
- method.description: NCI tumour cell line growth inhibition, 48 h; in the data active = GI50 below about 0.43 µM; inactive = the rest
One label from this list, please: active, inactive

Prompt: Test call, this molecule: Cc1cc2c(cc1Cl)SC1=NN(C)S(=O)N1S2(=O)=O (stereo unspecified)
Response: inactive

Prompt: Try this molecule next: CCCC(=O)OCC1OC(n2cnc3c(=S)nc[nH]c32)C(OC(=O)CCC)C1OC(=O)CCC (stereo unspecified)
Response: inactive

Prompt: Try this molecule next: O=C1C(Cl)=C(NCCN2CCOCC2)C(=O)c2ncccc21
Response: inactive

Prompt: Try this molecule next: O=C(O)CCNC1CCCCC1
Response: inactive

Prompt: Try this molecule next: Cc1ccc2c(c1)Sc1c(ccc3ccccc13)N2
Response: inactive

Prompt: Try this molecule next: CCCCCCCC[C@@H](O)CC(=O)N[C@@H](CC(N)=O)C(=O)N[C@@H](CCC(N)=O)C(=O)N[C@@H](CC(=O)c1cc(C)cc(O)c1C(=O)c1c(O)cccc1O)CC(C)C
Response: inactive

Prompt: Try this molecule next: CC/C=C\C[C@@H](O)C/C=C1/C(=O)C=C[C@H]1C/C=C\CCCC(=O)OC
Response: inactive

Prompt: Try this molecule next: CCCCCCCCn1ccc2cc(NC(=O)Cn3cc(CN4CCCC4)nn3)ccc21
Response: inactive

Prompt: Try this molecule next: CCCn1c(=S)sc2c1nc(C)n1c(Nc3ccccc3)nnc21
Response: inactive

Prompt: Try this molecule next: COc1cc2cc(Oc3ccc(NC(=O)Nc4ccc(Cl)c(C(F)(F)F)c4)cc3)c(C)nc2cc1OCCN1CCOCC1
Response: inactive

Prompt: Try this molecule next: COc1cc[nH]c1/C=C1\C(=O)Nc2ccc(F)c(C#CC3(O)CCNCC3)c21
Response: active

Prompt: Try this molecule next: O=C(Nc1ccncc1)C(=O)c1cn(S(=O)(=O)c2cccc(F)c2)c2ccccc12
Response: inactive

Prompt: Try this molecule next: CC1(C)OC2=C(CC1Br)C(=O)C(=O)c1ccccc12 (stereo unspecified)
Response: inactive

Prompt: Try this molecule next: CCN(CC)CCCC(C)Nc1c2ccc(Cl)cc2nc2ccc(O)cc12 (stereo unspecified)
Response: inactive

Prompt: Try this molecule next: O=C1Nc2ccccc2C1(c1ccc(O)cc1)c1ccc(O)cc1
Response: inactive

Prompt: Try this molecule next: CC/C=C\C[C@H](F)C/C=C1/C(=O)C=C[C@@H]1C/C=C\CCCC(=O)O
Response: inactive

Prompt: Try this molecule next: NC(=O)NS(=O)(=O)c1ccc(N2N=C(C(F)(F)F)CC2c2cc(C(F)(F)F)cc(C(F)(F)F)c2)cc1 (stereo unspecified)
Response: inactive

Prompt: Try this molecule next: Cc1ccc(-c2nc3nc(-c4ccccc4)nc(N4CCCNCC4)c3o2)cc1
Response: inactive

Prompt: Try this molecule next: COC(=O)Nc1nc2ccc(Oc3ccc(NC(=O)Nc4cc(C(F)(F)F)ccc4F)cc3)cc2s1
Response: active

Prompt: Try this molecule next: O=C(Nc1ccc(-c2nc(N3CCOCC3)c3cccn3n2)cc1)Nc1cccnc1
Response: active

Prompt: Try this molecule next: O=C1CCC(N2C(=O)c3ccccc3C2=O)C(=O)N1CO (stereo unspecified)
Response: inactive
